Target: T1, RecG DNA helicase, wildtype (E. coli, UniProt P24230 1-693)
T1 construct: RecG DNA helicase, E. coli, expressed from overexpression plasmid pEAW111; No tag is mentioned; also called WT RecG; source: E. coli STL2669/pT7pol26 with pEAW111, purified (ammonium sulfate, DEAE, Source 15Q, Source 15S)
T1 sequence (looked up): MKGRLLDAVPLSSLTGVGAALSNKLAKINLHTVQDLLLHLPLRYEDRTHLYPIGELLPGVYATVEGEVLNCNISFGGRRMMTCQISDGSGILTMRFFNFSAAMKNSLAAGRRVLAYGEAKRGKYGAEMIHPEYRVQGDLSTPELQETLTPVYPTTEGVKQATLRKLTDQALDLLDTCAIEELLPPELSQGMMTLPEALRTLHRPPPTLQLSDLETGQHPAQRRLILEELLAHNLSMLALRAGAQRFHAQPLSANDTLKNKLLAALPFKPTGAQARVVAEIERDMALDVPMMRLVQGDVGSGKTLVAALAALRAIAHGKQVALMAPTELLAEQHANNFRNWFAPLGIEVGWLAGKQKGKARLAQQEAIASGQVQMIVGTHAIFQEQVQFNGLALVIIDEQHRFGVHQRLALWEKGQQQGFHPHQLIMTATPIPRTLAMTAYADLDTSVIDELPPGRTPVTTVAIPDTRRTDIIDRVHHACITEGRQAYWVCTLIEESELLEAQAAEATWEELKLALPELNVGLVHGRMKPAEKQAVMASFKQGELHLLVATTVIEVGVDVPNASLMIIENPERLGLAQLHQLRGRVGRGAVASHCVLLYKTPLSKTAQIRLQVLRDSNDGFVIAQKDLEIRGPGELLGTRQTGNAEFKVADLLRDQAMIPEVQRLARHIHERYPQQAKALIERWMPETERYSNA
Experiment: ITC; SSB proteins or unlabeled peptides injected into RecG in the cell; 20 mM Tris-HCl pH 8.0, 150 mM NaCl, 10% glycerol, 1 mM EDTA, 1 mM β-mercaptoethanol; 25°C; one-site model; concentrations as monomers
Settings: both partners purified
property.measured: Kd (µM)

binder	readout.number
WMDFDDDIPF (N-terminal tryptophan residue added for quantification; C-terminal tip of SSB, E. coli; source: synthetic peptide (Genscript)) [SSB-Ct peptide, unlabeled]	3.9
